Data credit: patent US20140163023A1

Overview of recorded IC50 for various molecules
- study.target: PI3Kδ (Homo sapiens)
- Construct: endogenous in cells; host or cells: Jurkat (ATCC TIB-152, clone E6-1) and Ramos (ATCC CRL-1596), 1:1 lysate mix
- Sequence (O00329 whole entry): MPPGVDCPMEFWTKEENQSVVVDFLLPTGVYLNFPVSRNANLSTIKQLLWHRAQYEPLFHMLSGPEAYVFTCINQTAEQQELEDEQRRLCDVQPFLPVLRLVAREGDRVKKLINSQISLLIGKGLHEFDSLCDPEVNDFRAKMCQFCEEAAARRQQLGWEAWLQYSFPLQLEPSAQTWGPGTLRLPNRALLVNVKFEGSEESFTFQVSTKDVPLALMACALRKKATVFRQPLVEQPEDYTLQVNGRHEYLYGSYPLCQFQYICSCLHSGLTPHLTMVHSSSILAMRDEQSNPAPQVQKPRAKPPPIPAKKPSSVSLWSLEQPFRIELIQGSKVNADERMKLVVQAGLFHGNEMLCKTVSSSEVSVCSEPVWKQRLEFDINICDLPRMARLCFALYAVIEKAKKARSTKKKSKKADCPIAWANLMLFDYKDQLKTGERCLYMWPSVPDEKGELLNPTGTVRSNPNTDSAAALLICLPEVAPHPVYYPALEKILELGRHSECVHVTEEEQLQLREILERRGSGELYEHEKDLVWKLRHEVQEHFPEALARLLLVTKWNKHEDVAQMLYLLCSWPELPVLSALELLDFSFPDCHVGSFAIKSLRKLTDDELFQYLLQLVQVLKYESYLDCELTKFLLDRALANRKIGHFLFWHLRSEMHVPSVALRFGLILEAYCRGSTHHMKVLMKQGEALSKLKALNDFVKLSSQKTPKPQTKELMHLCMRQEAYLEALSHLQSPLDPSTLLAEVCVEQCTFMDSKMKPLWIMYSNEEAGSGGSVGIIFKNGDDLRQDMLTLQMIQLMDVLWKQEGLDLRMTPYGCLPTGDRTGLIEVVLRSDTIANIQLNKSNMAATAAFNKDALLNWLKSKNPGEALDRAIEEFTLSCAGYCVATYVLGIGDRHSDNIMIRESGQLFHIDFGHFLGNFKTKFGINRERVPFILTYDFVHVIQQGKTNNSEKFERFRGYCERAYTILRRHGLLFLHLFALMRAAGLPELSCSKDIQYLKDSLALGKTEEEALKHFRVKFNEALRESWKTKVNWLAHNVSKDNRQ
- Sequence (P27986 whole entry partner): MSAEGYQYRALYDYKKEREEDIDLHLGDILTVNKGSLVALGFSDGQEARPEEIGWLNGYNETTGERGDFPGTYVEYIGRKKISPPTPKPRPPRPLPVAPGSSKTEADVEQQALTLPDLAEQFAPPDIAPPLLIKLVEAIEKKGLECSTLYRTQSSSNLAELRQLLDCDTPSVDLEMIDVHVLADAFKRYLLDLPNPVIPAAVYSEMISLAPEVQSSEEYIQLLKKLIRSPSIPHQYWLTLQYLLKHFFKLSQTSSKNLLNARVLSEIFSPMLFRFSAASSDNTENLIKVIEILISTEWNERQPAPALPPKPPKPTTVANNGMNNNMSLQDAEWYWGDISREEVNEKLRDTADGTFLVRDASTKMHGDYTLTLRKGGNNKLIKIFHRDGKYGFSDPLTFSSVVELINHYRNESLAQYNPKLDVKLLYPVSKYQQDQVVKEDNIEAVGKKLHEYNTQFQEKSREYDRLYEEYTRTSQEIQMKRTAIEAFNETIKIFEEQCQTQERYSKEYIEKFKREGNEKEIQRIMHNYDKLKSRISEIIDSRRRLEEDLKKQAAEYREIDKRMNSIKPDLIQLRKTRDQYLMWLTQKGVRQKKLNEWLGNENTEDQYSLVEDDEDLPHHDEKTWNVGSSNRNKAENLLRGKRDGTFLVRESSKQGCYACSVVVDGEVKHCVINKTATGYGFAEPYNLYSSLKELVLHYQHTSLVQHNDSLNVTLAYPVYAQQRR
- assay.protocol: kinobeads assay, PI3Kδ
- Assay type: binding
- condition.parameters: 1:1 mix of Jurkat and Ramos cell lysates, read-out: Inhibition values (IC50 in μM) as determined in the kinobeads assay, PI3Kδ
- Description: The compounds of the present invention as described were tested in the mTOR kinobeads assay as described below. […] Bound proteins were then eluted and the presence of mTOR, PI3Kα, PI3Kβ, PI3Kγ, PI3Kδ and DNA-dependent protein kinase (DNA-PK) was detected and quantified using a specific antibody in a dot blot procedure and the Odyssey infrared detection system. Dose response curves for individual kinases were generated and IC50 values calculated. […]
Counter-ions that a name gives are not always drawn.

Answered examples (4):
| molecule | result |
| --- | --- |
| CC(=O)N1Cc2nc(N3CCOC[C@@H]3C)nc(-c3ccc(NC(=O)NC4CC4)cc3)c2C1 [Example 12] | 10 to 100 µM |
| C[C@H]1COCCN1c1nc2c(c(-c3ccc(NC(=O)NC4CC4)cc3)n1)CN(C)C2 [Example 11] | 10 to 100 µM |
| C[C@H]1COCCN1c1nc2c(c(-c3ccc(NC(=O)NC4CC4)cc3)n1)CN(C(=O)CC#N)C2 [Example 23] | 10 to 100 µM |
| CCNC(=O)Nc1ccc(-c2nc(N3CCOC[C@@H]3C)nc3c2CN(C(C)C)C3)cc1 [Example 46, 2,2,2-trifluoroacetate] | > 100 µM |

Quick check: IC50 of CCNC(=O)Nc1ccc(-c2nc(N3CCOCC3)nc3c2CNC3)cc1 [Example 4] ?
10 to 100 µM

Quick check: IC50 of C[C@H]1COCCN1c1nc2c(c(-c3ccc(NC(=O)NC4CC4)cc3)n1)CNC2 [Example 1] ?
10 to 100 µM

Quick check: IC50 of C[C@H]1COCCN1c1nc2c(c(-c3ccc(NC(=O)NCCO)cc3)n1)CNC2 [Example 19] ?
10 to 100 µM

Quick check: IC50 of CC(C)CN1Cc2nc(N3CC4CCC(C3)O4)nc(-c3ccc(NC(=O)NCCO)cc3)c2C1 [Example 48, 2,2,2-trifluoroacetate] ?
> 100 µM

Quick check: IC50 of C[C@H]1COCCN1c1nc2c(c(-c3ccc(NC(=O)NC4CC4)cc3)n1)CN(C(=O)C1CCCN1)C2 (stereo partly shown) [Example 41, hydrochloride] ?
10 to 100 µM

Quick check: IC50 of CC(O)CNC(=O)Nc1ccc(-c2nc(N3CCOC[C@@H]3C)nc3c2CN(C(C)C)C3)cc1 (stereo partly shown) [Example 45] ?
> 100 µM

Quick check: IC50 of COCCC(=O)N1Cc2nc(N3CCOC[C@@H]3C)nc(-c3ccc(NC(=O)NC4CC4)cc3)c2C1 [Example 31] ?
10 to 100 µM

Quick check: IC50 of CCNC(=O)Nc1ccc(-c2nc(N3CC4CCC(C3)O4)nc3c2CN(C(C)C)C3)cc1 [Example 49, 2,2,2-trifluoroacetate] ?
> 100 µM

Quick check: IC50 of O=C(Nc1ccc(-c2nc(N3CCOCC3)nc3c2CNC3)cc1)NC1CC1 [Example 5] ?
10 to 100 µM

Quick check: IC50 of CC(C)N1Cc2nc(N3CCOC[C@@H]3C)nc(-c3ccc(NC(=O)NCCO)cc3)c2C1 [Example 34, 2,2,2-trifluoroacetate] ?
10 to 100 µM

Quick check: IC50 of O=C(Nc1ccc(-c2nc(N3CC4CCC(C3)O4)nc3c2CNC3)cc1)NC1CC1 [Example 18] ?
> 100 µM

Quick check: IC50 of CC(=O)N1Cc2nc(N3CCOC[C@@H]3C)nc(-c3ccc(NC(=O)NCCO)cc3)c2C1 [Example 39] ?
1 to 10 µM
